- System: Staphylococcus aureus
- Assay Details: Antimicrobial activity against methicillin-susceptible Staphylococcus aureus isolated from ICU patient respiratory tract assessed as resistant isolates by broth microdilution method
- Assay type: functional
Readout Type: Activity (%)
Field: numeric (%). Do not append units.

CN[C@H](CC(C)C)C(=O)N[C@H]1C(=O)N[C@@H](CC(N)=O)C(=O)N[C@H]2C(=O)N[C@H]3C(=O)N[C@H](C(=O)N[C@H](C(=O)O)c4cc(O)cc(O)c4-c4cc3ccc4O)[C@H](O)c3ccc(c(Cl)c3)Oc3cc2cc(c3O[C@@H]2O[C@H](CO)[C@@H](O)[C@H](O)[C@H]2O[C@H]2C[C@](C)(N)[C@H](O)[C@H](C)O2)Oc2ccc(cc2Cl)[C@H]1O | 0

Prompt: Staphylococcus aureus / Activity / `CCC[C@@H]1C[C@@H](C(=O)N[C@@H]([C@H]2O[C@H](SC)[C@H](O)[C@@H](O)[C@H]2O)[C@H](C)Cl)N(C)C1` : value?
Completion: 4.3
